The entries below are paired with their reported IC50.
test system: MCF-7; assay: MTT cell viability assay, MCF-7; assay type: cell-based; settings: Homo sapiens, MCF7; MTT, 72-hour incubation; read-out: IC50/μM MCF-7
Your reply should be a number followed by the unit it is expressed in.

Check out these entries, answers already filled in.
query_smiles	measured_parameter	experimental_value
CCn1c(=O)/c(=C2\Sc3cc(OC)ccc3N2C)s/c1=C\c1scc[n+]1CCc1cccc(Cl)c1	IC50	0.56 µM
CCn1c(=O)/c(=C2\Sc3cc(Br)ccc3N2C)s/c1=C\c1scc[n+]1Cc1ccccc1OC(F)(F)F	IC50	0.14 µM
CCn1c(=O)/c(=C2\Sc3cc(OC)ccc3N2C)s/c1=C\c1scc[n+]1Cc1cc(C)sc1C	IC50	0.15 µM

In the following, a different molecule is considered.
Item: CCn1c(=O)/c(=C2\Sc3cc(Cl)ccc3N2C)s/c1=C\c1scc[n+]1CCc1ccc(C(F)(F)F)cc1 | IC50: 0.78 µM
